Assignment: determine reported pIC50 for the given compounds.
- Tested on: glioblastoma cell line U87MG
- experimental protocol: High-throughput screening, cell viability, U87MG
- Assay type: cell-based
- conditions: seven days after drug treatment
Non-standard residues stand in square brackets, D forms with d. Residues, ends and D or L forms follow the SMILES beside them. *: point of attachment. Dolaproine = CO[C@@H]([C@@H]1CCCN1)[C@@H](C)C(=O)O; Dil = CC[C@H](C)[C@H](NC)[C@@H](CC(=O)O)OC; X1 = C[C@@H](N*)[C@@H](O)c1ccccc1; NMeV = CN[C@H](C(=O)O)C(C)C
One number for each entry, as −log10 of the molar value.

Example cases with answers are listed next.
{"columns": ["compound", "pIC50"],
 "data": [
  ["COc1cc2cc(c1Cl)N(C)C(=O)C[C@H](OC(=O)[C@H](C)N(C)C(=O)CCC(C)(C)S)[C@]1(C)O[C@H]1[C@H](C)[C@@H]1C[C@@](O)(NC(=O)O1)[C@H](OC)/C=C/C=C(\\C)C2 [DM4]", 8.82],
  ["CC[C@H](C)[C@@H]([C@@H](CC(=O)N1CCC[C@H]1[C@H](OC)[C@@H](C)C(=O)N[C@@H](Cc1ccccc1)C(=O)O)OC)N(C)C(=O)[C@@H](NC(=O)[C@@H](NC)C(C)C)C(C)C [MMAF] (HELM PEPTIDE1{[meV].V.[CC[C@H](C)[C@@H]([C@@H](CC(=O)[*:2])OC)N(C)[*:1]].[CO[C@H]([C@@H](C)C(=O)[*:2])[C@@H]1CCCN1[*:1]].F}$$$$V2.0)", 6.45],
  ["COc1cc2cc(c1Cl)N(C)C(=O)C[C@H](OC(=O)[C@H](C)N(C)C(=O)CCS)[C@]1(C)O[C@H]1[C@H](C)[C@@H]1C[C@@](O)(NC(=O)O1)[C@H](OC)/C=C/C=C(\\C)C2 [DM1]", 7.88],
  ["CCc1c2c(nc3ccc(O)cc13)-c1cc3c(c(=O)n1C2)COC(=O)[C@]3(O)CC [SN-38]", 7.17]
]}

Qu. Please tell me the measured pIC50 for CC[C@H](C)[C@@H]([C@@H](CC(=O)N1CCC[C@H]1[C@H](OC)[C@@H](C)C(=O)N[C@H](C)[C@@H](O)c1ccccc1)OC)N(C)C(=O)[C@@H](NC(=O)[C@@H](NC)C(C)C)C(C)C [MMAE] (H-[NMeV]V[Dil][Dolaproine]-X1) ; system: glioblastoma cell line U87MG.
Ans. 8.47
